Data origin: PubChem BioAssay

- ASSAY: fission yeast growth modulation, primary screen, strain 972, OD600, 24 h, no modulator (AID 1090);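 note: basal condition with compound alone and no growth modifier present; test concentration not given here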
- MEASUREMENT_CONTEXT: S. pombe 972 growth, higher = more signal, called active from +8 up or from −8 down
Recorded measurements of z-score, one per entry
Form field (numeric): enter value without unit.

MOLECULE	z-score
O=C/C=C/c1ccc(-c2ccccc2)cc1	-19.9

// CCCCCCc1nc(-c2ccc(OC)nc2)c(C)c2c1[Si](C(C)C)(C(C)C)OC2 : z-score value = -0.329

// COc1c(C)cc(-c2nc(-c3ccccc3)c3c(c2C)CO[Si]3(C(C)C)C(C)C)cc1C : z-score value = 0.104

// CC(C)C[C@H]1NC(=O)CNC(=O)[C@@]23C(=O)N[C@@H](Cc4ccccc4)C2[C@H](C)[C@@]2(C)O[C@H]2C3/C=C/C/C=C\CNC1=O (some centres not stated) : z-score value = 0.189

// COCCOC(=O)N1C(=O)[C@@]2(c3ccccc31)[C@H](C(=O)Nc1nc3ccccc3s1)[C@H]1C(=O)O[C@H](c3ccccc3)[C@H](c3ccccc3)N1[C@@H]2c1ccccc1OCCO : z-score value = 2.78

// COC(=O)C(CC#Cc1ccc2c(c1)[C@]1(C(=O)N2)[C@H](C(N)=O)[C@H]2C(=O)O[C@H](c3ccccc3)[C@H](c3ccccc3)N2[C@@H]1c1ccccc1OCCO)C(=O)OC : z-score value = 0.943

// C[C@]12C(=O)N(CCO)[C@@H]3C(=O)N(c4ccc(Cl)cc4)CC=CC31O[C@@H]1/C=C\CCCOC(=O)C12 (some centres not stated) : z-score value = -0.13

---

Recorded measurements of composite z-score, one per entry
- Tested on: Sonic hedgehog protein (Shh)
- ASSAY: small-molecule binders of Shh protein, primary screen, biochemical, small-molecule microarray, 635/667 nm fluorescence (AID 1151);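 note: Shh protein binding to compounds spotted on small-molecule microarray slides; score combines spot fluorescence intensity with signal-to-noise across triplicate slides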
- MEASUREMENT_CONTEXT: small-molecule microarray binding, 635 nm fluorescence; higher = more signal

In [3]: df
Out[3]:
                                   compound       readout_name   value
0  O=C1C2C=CC(C(O)C3CCCCC3)N(Nc3ccccc3F)C2C(=O)N1c1ccccc1 (stereo not given)  composite z-score  -0.324
1  COCCCNC(=O)[C@@]1(CCC(=O)OC(C)(C)C)N=C(c2ccc(OCCCO)cc2)O[C@H]1c1ccccc1  composite z-score  -0.119
2  C=C[C@H](C)[C@@H](OC(=O)Nc1ccc(SC)cc1)c1ccc(OCCO)cc1  composite z-score    1.98

// CCCC[C@@H](O)C1=C(C)Cn2c(=O)n(-c3ccccc3)c(=O)n2[C@H]1CO : composite z-score value = 0.317

// COC(=O)[C@]1(Cc2ccccc2CN=[N+]=[N-])N=C(c2ccc(OCCCO)cc2)O[C@@H]1c1ccccc1N=[N+]=[N-] : composite z-score value = 0.336

---

- ASSAY: small-molecule binders of probe aInhba, primary screen, biochemical, small-molecule microarray, 635/667 nm fluorescence (AID 1148);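 note: score merges 667nm spot fluorescence with signal-to-noise for antibody binding to printed compounds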
- MEASUREMENT_CONTEXT: higher = more signal
READOUT_NAME: composite z-score
Form field (numeric): enter value without unit.

COMPOUND	composite z-score
COc1cc2c(cc1O)C(C)N(Cc1sc3ccccc3c1Cl)CC2 (centres undefined)	0.0021
[N-]=[N+]=NCc1ccccc1[C@H]1OC(c2ccc(OCCCO)cc2)=N[C@@]1(CCS(=O)(=O)c1ccccc1)C(=O)NCCN1CCOCC1	0.54
COCCOC(=O)N1C(=O)[C@@]2(c3cc(C#CCNC(N)=O)ccc31)[C@H](C(=O)Nc1nc3ccccc3s1)[C@H]1C(=O)O[C@H](c3ccccc3)[C@H](c3ccccc3)N1[C@@H]2c1ccc(O)cc1	0.189

Now take the following compound into account.
// COC(=O)C1=CC(c2ccc(CO)cc2)=CC(C2CC2)N(Cc2cc3c(cc2Br)OCO3)C=C1C(=O)OC (centres undefined) : composite z-score value = 0.225

---

- ASSAY: modulators of HCV replicon luciferase signal, primary screen, HCV replication inhibitor project, Huh7 cells, luciferase reporter (AID 1109);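 note: huh7 hepatoma cells harbouring a luciferase neomycin HCV replicon reporter; luciferase luminescence as measure of HCV replicon replication; test concentration not given here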
- MEASUREMENT_CONTEXT: 48 h, higher = more signal
Recorded measurements of z-score, one per entry
Form field (numeric): enter value without unit.

RECORD_SMILES	z-score
Cc1ccc(S(=O)(=O)N2[C@@H](c3ccccc3)C(C(=O)O)=C[C@H]2C(C)(C)C)cc1	-1.25
COCCOC(=O)N1C(=O)[C@@]2(c3cc(C#CCC(C(=O)OC)C(=O)OC)ccc31)[C@H](C(N)=O)[C@H]1C(=O)O[C@H](c3ccccc3)[C@H](c3ccccc3)N1[C@@H]2c1ccccc1OCCO	-3.36
[N-]=[N+]=NCc1ccccc1C[C@]1(C(=O)N2CCCCC2)COC(c2ccc(OCCCO)cc2)=N1	-2.57

Now take the following compound into account.
// CCCCC(=C=CC[C@H](O)c1ccccc1OCCO)CCO : z-score value = -1.69

---

- ASSAY: fission yeast growth modulation, primary screen, strain 972, OD600, 24 h, no modulator (AID 1090);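 note: basal condition with compound alone and no growth modifier present; test concentration not given here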
- MEASUREMENT_CONTEXT: S. pombe 972 growth, higher = more signal, called active from +8 up or from −8 down
READOUT_NAME: z-score
Form field (numeric): enter value without unit.

Consider the worked cases shown below.
>>> df
                                   molecule  value
0  CN1C(=O)C2C=CC(C(O)c3ccc(I)cc3)N(N(c3ccccc3)c3ccccc3)C2C1=O (centres undefined)   1.38
1  COC(=O)[C@@]1(Cc2ccc(F)cc2)[C@H]2c3cc(C(=O)N(C)C)n(Cc4ccsc4Br)c3C[C@H]2CN1C(=O)c1ccccc1  0.168
2  O=C(NCC(F)(F)F)[C@@H]1c2ccccc2C(=O)N(Cc2cc(C(F)(F)F)cc(C(F)(F)F)c2)[C@H]1c1ccc(CO)cc1  0.459

Now take the following molecule into account.
// [N-]=[N+]=NCc1ccccc1[C@H]1OC(c2ccc(OCCCO)cc2)=N[C@@]1(CCS(=O)(=O)c1ccccc1)C(=O)O : z-score value = -0.155

---

- System: wheat germ agglutinin (Triticum aestivum), Alexa647-labelled
- ASSAY: wheat germ agglutinin binders on compound microarrays, profiling panel, artefact control for SMM control-protein annotation, biochemical, small-molecule microarray, 635/667 nm fluorescence (AID 1140);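 note: score merges 667 nm feature emission with signal to noise over triplicate slides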
- MEASUREMENT_CONTEXT: WGA-A647 binding, 635 nm fluorescence, higher = more signal
Recorded measurements of composite z-score, one per entry

Consider the worked cases shown below.
MOLECULE	ASSAY_SYSTEM	VALUE
COc1ccc([Si](C)(C)[C@H]2[C@H](CC(=O)N3CCC[C@H]3CO)O[C@@]3(C(=O)N(Cc4cccc(N5CCCCC5=O)c4)c4ccccc43)[C@@H]2C)cc1	wheat germ agglutinin (Triticum aestivum), Alexa647-labelled	0.442
COc1ccc(C(O)C2C=CC3C(=O)N(c4ccccc4)C(=O)C3N2Nc2ccccc2F)c2ccccc12 (configuration not stated)	wheat germ agglutinin (Triticum aestivum), Alexa647-labelled	1.29
[N-]=[N+]=NCc1ccccc1[C@H]1OC(c2ccc(OCCCO)cc2)=N[C@@]1(Cc1ccccc1N=[N+]=[N-])C(=O)N1CCOCC1	wheat germ agglutinin (Triticum aestivum), Alexa647-labelled	1.07

// CC(C)c1ccc(NN2C(C(O)c3ccccc3)C=CC3C(=O)N(c4ccccc4)C(=O)C32)cc1 (configuration not stated) : composite z-score value = 1.13

// COC(=O)C1(CC(C)C)C=C2C(=C(C)C(=O)C2C)CN1 (configuration not stated) : composite z-score value = 0.67

// COCCOC(=O)N1C(=O)[C@@]2(c3cc(C#CCNC(N)=O)ccc31)[C@H](C(=O)N1CCN(c3ncccn3)CC1)[C@H]1C(=O)O[C@H](c3ccccc3)[C@H](c3ccccc3)N1[C@@H]2c1ccc(O)cc1 : composite z-score value = 0.0548

// C=C(COC)C(=O)CC[C@H](OC(C)=O)c1ccc(CO)o1 : composite z-score value = 0.841

---

Recorded measurements of composite z-score, one per entry
- ASSAY_SYSTEM: E3 ubiquitin-protein ligase XIAP (Homo sapiens)
- ASSAY: XIAP binders, primary screen, biophysical, small-molecule microarray, fluorescence 635 nm (AID 1181);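 note: score merges 667 nm emission and signal to noise over triplicate slides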
- MEASUREMENT_CONTEXT: small-molecule microarray binding, higher = more signal

COMPOUND	VALUE
COc1ccc(C#Cc2ccc3c(c2)[C@]2(C(=O)N3)[C@H](c3ccccc3OCCO)N3[C@H](c4ccccc4)[C@H](c4ccccc4)OC(=O)[C@H]3[C@@H]2C(=O)NC[C@H](O)c2ccccc2)cc1	0.0655
CCCCCN1CC=CC23O[C@@H]4/C=C\CCCOC(=O)C4[C@H]2C(=O)N(CCCCCO)[C@@H]3C1=O (stereo partly drawn)	0.165
COC(=O)[C@@]1(Cc2ccc(OC)cc2)[C@H]2c3cc(C(=O)N(C)C)n(Cc4c(CO)[nH]cc(C)c4=O)c3C[C@H]2CN1C(=O)c1ccccc1	-0.127
C=CC[C@H](O)c1ccc(O)c(F)c1	-0.0088
COC(=O)[C@]1(Cc2ccccc2CN=[N+]=[N-])N=C(c2ccc(OCCCO)cc2)O[C@@H]1c1ccccc1N=[N+]=[N-]	-0.188

// CN1C(=O)C2C=CC(C(O)c3ccc(I)cc3)N(N(c3ccccc3)c3ccccc3)C2C1=O (stereo not drawn) : composite z-score value = 0.95

// CC(C)C[C@@H]1NC(=O)[C@@H]2C[C@H](C(=O)NCCCCCCNC(=O)CS)[C@H](c3ccc(O)cc3)N2C1=O : composite z-score value = 0.291

// COc1ccc(C(O)C2C=CC3C(=O)N(C)C(=O)C3N2Nc2ccccc2)cc1 (stereo not drawn) : composite z-score value = 0.032
